system: T-47D breast; test: NCI tumour cell line growth inhibition, 48 h; in the data active means GI50 below about 0.43 µM; inactive means the rest
Possible outcomes: active, inactive

>  <compound>
CC1=C(c2ccccc2)C(O)(c2ccccc2)C(C)C1=O (stereo unspecified)

>  <class_label>
inactive

$$$$
>  <compound>
COC(=O)c1ccc(CN2C(=O)C(Cl)=C(Nc3cccc(Cl)c3C)C2=O)cc1

>  <class_label>
inactive

$$$$
>  <compound>
C[C@]12CC[C@H]3[C@@H](CC=C4C[C@@H](N5CCCC5)CC[C@@]43C)[C@@H]1C/C(=C\c1cccc(OCCN3CCOCC3)c1)[C@@H]2O

>  <class_label>
inactive

$$$$
>  <compound>
CNC(=O)c1c(NC(=O)c2ccc(C(C)(C)C)cc2)sc2c1CCC(=O)C2

>  <class_label>
active

$$$$
>  <compound>
CCN(CC)CCN1C(=O)c2c(c3c4ccccc4[nH]c3c3ccc4ccccc4c23)C1=O

>  <class_label>
inactive

$$$$
>  <compound>
CC(N)(Cc1c[nH]c2cccc(F)c12)C(=O)O (stereo unspecified)

>  <class_label>
inactive

$$$$
>  <compound>
Cc1cc2c(cc1Cl)S/C(=C/C(=O)O)C(Nc1ccc3ncsc3c1)=NS2(=O)=O

>  <class_label>
inactive

$$$$
>  <compound>
COc1ccc(/C(COc2ccc3oc(-c4ccccc4)cc(=O)c3c2)=N\O)cc1

>  <class_label>
inactive

$$$$
>  <compound>
COc1cc(/C=N/Nc2ncnc3c2cnn3-c2ccccc2)ccc1O

>  <class_label>
inactive

$$$$
>  <compound>
Cc1ccccc1NC(=O)c1sc2nc(C)c(C(=O)/C=C/c3ccccc3)cc2c1N

>  <class_label>
inactive

$$$$
>  <compound>
Cc1cccc2nc3ccccc3c(Nc3ccc(NS(C)(=O)=O)cc3)c12

>  <class_label>
inactive

$$$$

* * *

tested on: OVCAR-5 ovarian; test: NCI tumour cell line growth inhibition, 48 h; in the data active = GI50 below about 0.43 µM; inactive = the rest
Possible outcomes: yes (1) for active, no (0) for inactive

>  <compound>
CNC(=O)c1c(NC(=O)c2ccc(C(C)(C)C)cc2)sc2c1CCC(=O)C2

>  <class_label>
yes (1)

$$$$
>  <compound>
NC(=O)c1cc([N+](=O)[O-])c(Cl)c([N+](=O)[O-])c1Cl

>  <class_label>
no (0)

$$$$
>  <compound>
CCN(Cc1ccccc1)C1CCN(Cc2cc(Br)ccc2O)CC1

>  <class_label>
no (0)

$$$$
>  <compound>
CCC(C)Nc1ccc(N)cc1 (centres undefined)

>  <class_label>
no (0)

$$$$

* * *

Known GI50 of a selection of compounds
system: KM12 colon; test: NCI tumour cell line growth inhibition, 48 h

>  <compound>
NC(=O)c1cc([N+](=O)[O-])c(Cl)c([N+](=O)[O-])c1Cl

>  <tested_target>
KM12 colon

>  <GI50>
1.61 µM

$$$$
>  <compound>
Cc1cccc2nc3ccccc3c(Nc3ccc(NS(C)(=O)=O)cc3)c12

>  <tested_target>
KM12 colon

>  <GI50>
6.19 µM

$$$$
>  <compound>
NCCCC[C@@H]1NC(=O)[C@H](CC(=O)O)NC(=O)CNC(=O)[C@H](CCCN=C(N)N)NC(=O)[C@@H](N)CSSC[C@@H](C(=O)O)NC(=O)[C@H](CC(=O)O)NC(=O)[C@@H]2CCCN2C(=O)CNC1=O

>  <tested_target>
KM12 colon

>  <GI50>
> 100 µM

$$$$
>  <compound>
CC1=C(c2ccccc2)C(O)(c2ccccc2)C(C)C1=O (centres undefined)

>  <tested_target>
KM12 colon

>  <GI50>
7.52 µM

$$$$
